B1: SAT2 (parent)
chain: IIKKVAEVALDKGCSQFRLAVLDW

Variants of: B1
protocol: protein stability index of a GFP-peptide fusion (GPS, HEK-293T) (PSI 1-6); higher = more stable;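 further: lentivirally expressed fusions sorted by FACS into six bins by GFP to DsRed ratio, PSI derived from sequencing read proportions per bin multiplied by bin number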
protocol conditions: c terminus: a fixed tail appended
Kindly supply the reported protein stability index values for the records listed here.
Answers are plain numbers.

Record excerpt, results attached:
[[record]]
alteration = "I1H"
data_value = 2.14

[[record]]
alteration = "V21L"
data_value = 4.52

[[record]]
alteration = "V21Q"
data_value = 1.04


Would you mind giving protein stability index for every variant in the list below?
1. W24H
2. S15Y
3. L10D
4. A6Q
5. C14D
6. L19N

1. 1.04
2. 3.27
3. 1.75
4. 1.15
5. 2.61
6. 2.69

Would you mind giving protein stability index for every variant in the list below?
1. V5N
2. G13D

1: 3.44; 2: 2.79

Would you mind giving protein stability index for every variant in the list below?
1. F17P
2. I1T

[3.25, 1.86]

Would you mind giving protein stability index for every variant in the list below?
1. Q16F
2. V5Y
3. K3P
4. E7T

4.68
1.04
1.86
2.79

Would you mind giving protein stability index for every variant in the list below?
1. L10H
2. L22T
3. K12W
4. L22D
5. I1Q

[1.99, 3.66, 4.21, 1.23, 2.23]
